Tested on: Streptococcus pyogenes SSI-9
Test: Antibacterial activity assay of bead-derived peptides (three concentrations)
Assay type: cell-based
Design: key: +++: inhibition by the 640-fold diluted peptide solution; ++: inhibition by the 160-fold diluted solution; +: inhibition by the 40-fold diluted solution; -: no inhibition
Conditions: S. pyogenes, bead-derived peptide solution, three concentrations
Where a SMILES comes first, the peptide text is derived from it. [ ]: non-standard residue; d: D form. The star is where a group is joined. NHCH2CH2OH = OCCN*; For = O=C*
ASSAY ENDPOINT: antibacterial activity

MOLECULE: CNC(=O)C[C@@H](NC(=O)[C@@H](NC(=O)[C@@H](CC(C)C)NC(=O)[C@H](C)NC(=O)[C@@H](CC(C)C)NC(=O)[C@H](C)NC(=O)CNC(=O)[C@@H](NC=O)C(C)C)C(C)C)C(=O)N[C@@H](Cc1c[nH]c2ccccc12)C(=O)N[C@H](CC(C)C)C(=O)N[C@@H](Cc1c[nH]c2ccccc12)C(=O)N[C@H](CC(C)C)C(=O)N[C@@H](Cc1c[nH]c2ccccc12)C(=O)N[C@@H](C(=O)N[C@@H](Cc1c[nH]c2ccccc12)C(=O)NCCO)[C@H](C)O [compound 8992] (For-VGA[dL]A[dL]V[dD](NHMe)W[dL]W[dL]W[dT]W-NHCH2CH2OH)
MEASURED RESULT: -
//
MOLECULE: CNC(=O)C[C@@H](NC(=O)[C@H](Cc1c[nH]c2ccccc12)NC(=O)[C@H](NC(=O)[C@H](Cc1c[nH]c2ccccc12)NC(=O)[C@H](NC(=O)[C@H](Cc1c[nH]c2ccccc12)NC(=O)[C@H](NC(=O)[C@@H](NC(=O)[C@@H](CC(C)C)NC(=O)[C@H](C)NC(=O)[C@H](NC(=O)[C@H](C)NC(=O)CNC(=O)[C@@H](NC=O)C(C)C)C(C)C)C(C)C)C(C)C)C(C)C)C(C)C)C(=O)N[C@@H](Cc1c[nH]c2ccccc12)C(=O)NCCO [compound 7479] (For-VGA[dV]A[dL]V[dV]W[dV]W[dV]W[dD](NHMe)W-NHCH2CH2OH)
MEASURED RESULT: -
